- Condition Description: 298.15 K; 101 kPa; Liquid
Threshold check on viscosity: strictly below 2 mPa·s is criterion met; on or above 2 mPa·s is criterion not met.

Answered examples (6):
CCCO
criterion not met
CCO
criterion met
CC(C)CO
criterion not met
CC(C)O
criterion not met
CC(C)CCO
criterion not met
CCCCO
criterion not met

q: Here's an entry: CC1CCCCC1 . Is its viscosity below 2 mPa·s?
a: criterion met

----------
- Assay Comment: refractive index (Na D-line) (dimensionless)
- Condition Description: 298.15 K; 101.33 kPa; Liquid
Recorded Endpoint: refractive index
Give the figure by itself; no unit, no explanation.

CC(C)O [propan-2-ol]
1.3765

q: Any idea what refractive index was measured for CCCO [propan-1-ol] ?
a: 1.384

q: Any idea what refractive index was measured for CCO [ethanol] ?
a: 1.3608

q: Any idea what refractive index was measured for CC(C)CCO [3-methylbutan-1-ol] ?
a: 1.4056
